molecular target: FGFR3 (UniProt P22607); test: phosphorylation enrichment, bacterial display (enrichment ratio); higher = better substrate or ligand; peptides without Tyr show the background;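 note: 11-residue human phosphosite peptides and single-mutation variants displayed on the E. coli surface, counted by deep sequencing, each peptide's frequency after selection divided by its frequency in the unselected input library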;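 note: frequency after pTyr selection over input frequency; kinase dosed for 20-30% of maximal phosphorylation in three min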
Sequence (P22607 whole entry, looked up): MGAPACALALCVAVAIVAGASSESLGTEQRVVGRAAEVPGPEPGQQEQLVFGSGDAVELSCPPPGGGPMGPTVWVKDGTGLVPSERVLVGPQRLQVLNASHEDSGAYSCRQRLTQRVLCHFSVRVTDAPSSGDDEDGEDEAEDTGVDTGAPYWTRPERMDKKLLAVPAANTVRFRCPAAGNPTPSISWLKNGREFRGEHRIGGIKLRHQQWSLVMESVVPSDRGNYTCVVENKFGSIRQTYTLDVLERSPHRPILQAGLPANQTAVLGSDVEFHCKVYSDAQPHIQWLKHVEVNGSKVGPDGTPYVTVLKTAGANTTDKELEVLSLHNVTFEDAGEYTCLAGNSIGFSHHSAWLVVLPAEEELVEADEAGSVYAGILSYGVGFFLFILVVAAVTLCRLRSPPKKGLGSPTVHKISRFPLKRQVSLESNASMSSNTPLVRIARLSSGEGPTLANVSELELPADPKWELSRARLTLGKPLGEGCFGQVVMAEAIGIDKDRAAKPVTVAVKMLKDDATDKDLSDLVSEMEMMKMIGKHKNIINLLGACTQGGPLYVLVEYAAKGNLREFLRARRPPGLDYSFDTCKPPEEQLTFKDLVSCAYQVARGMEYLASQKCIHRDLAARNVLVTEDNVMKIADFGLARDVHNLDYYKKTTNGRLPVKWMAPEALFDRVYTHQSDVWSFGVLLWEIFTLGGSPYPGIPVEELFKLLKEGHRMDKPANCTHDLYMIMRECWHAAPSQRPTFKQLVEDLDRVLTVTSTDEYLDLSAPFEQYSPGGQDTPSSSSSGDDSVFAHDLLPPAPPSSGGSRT
Label scheme for phosphorylation enrichment: lower than 1 is false, 1 and above is true.

Solved entries:
entry sequence: NTGLDYIKFTW [HRH1_Y386]
answer label: true
//
entry sequence: DYDHSYYFIAT [ESD_Y262_G257D]
answer label: true
//
entry sequence: CEDMEYLESKQ [BTK_Y511_A508D]
answer label: false
//
entry sequence: NNHGNYIVLLG [ETFDH_Y172_R175L]
answer label: true

Exam item: Check the entry KSNSDYVDVLP [SH2D1B_Y127_N122K] : does phosphorylation enrichment equal or exceed 1?
Marked response: true

Exam item: Would you mind doing CLMILYRLKER [PTPRR_Y249] as well?
Marked response: false
